The following compounds are shown together with reported MIC values.
# Test system: Escherichia coli 3190Y
# test.name: Minimum inhibitory concentration (agar 2-fold dilution)
# Format: cell-based
# experimental.setup: E. coli 3190Y, Muller-Hinton agar, 37° C., 20 hours, read-out: Minimum Inhibitory Concentration

compound.smiles	unit.descriptor	MIC
Cc1c(N)nc[n+](C/C=C/C2=C(C(=O)[O-])N3C(=O)[C@@H](NC(=O)/C(=N\O[C@H](C(=O)O)c4ccc(O)c(O)c4)c4csc(N)n4)[C@H]3SC2)c1N	µg/mL	0.063
Nc1nc(/C(=N/O[C@H](C(=O)O)c2ccc(O)c(O)c2)C(=O)N[C@@H]2C(=O)N3C(C(=O)[O-])=C(/C=C/C[n+]4cnc(N)c(N)c4N)CS[C@H]23)cs1	µg/mL	0.063
Nc1cc(N)[n+](C/C=C/C2=C(C(=O)[O-])N3C(=O)[C@@H](NC(=O)/C(=N\O[C@H](C(=O)O)c4ccc(O)c(O)c4)c4csc(N)n4)[C@H]3SC2)cn1	µg/mL	0.031
Nc1nc(/C(=N/O[C@@H](C(=O)O)c2ccc(O)c(O)c2)C(=O)N[C@@H]2C(=O)N3C(C(=O)[O-])=C(/C=C/C[n+]4cnc(N)c5c4CCC5)CS[C@H]23)cs1	µg/mL	0.25

====

# System: Staphylococcus aureus 77
# test.name: Minimum inhibitory concentration (agar 2-fold dilution)
# Assay type: cell-based
# experimental.setup: Staphylococcus aureus; S. aureus 77; Muller-Hinton agar, 37° C., 20 hours; read-out: Minimum Inhibitory Concentration
parameter: MIC (µg/mL)

compound.smiles	unit.descriptor	test.value
Nc1cc[n+](C/C=C/C2=C(C(=O)[O-])N3C(=O)[C@@H](NC(=O)/C(=N\O[C@H](C(=O)O)c4ccc(O)c(O)c4)c4csc(N)n4)[C@H]3SC2)cn1	µg/mL	4
Nc1nc(/C(=N/O[C@@H](C(=O)O)c2ccc(O)c(O)c2)C(=O)N[C@@H]2C(=O)N3C(C(=O)[O-])=C(/C=C/C[n+]4cnc(N)c5c4CCC5)CS[C@H]23)cs1	µg/mL	4
Nc1cc[n+](C/C=C/C2=C(C(=O)[O-])N3C(=O)[C@@H](NC(=O)/C(=N\O[C@@H](C(=O)O)c4ccc(O)c(O)c4)c4csc(N)n4)[C@H]3SC2)cn1	µg/mL	2
Cc1c(N)nc[n+](C/C=C/C2=C(C(=O)[O-])N3C(=O)[C@@H](NC(=O)/C(=N\O[C@@H](C(=O)O)c4ccc(O)c(O)c4)c4csc(N)n4)[C@H]3SC2)c1N	µg/mL	2

====

# Escherichia coli TEM1 1193E: MIC values follow

compound	unit.descriptor	MIC
Nc1cc(N)[n+](C/C=C/C2=C(C(=O)[O-])N3C(=O)[C@@H](NC(=O)/C(=N\O[C@@H](C(=O)O)c4ccc(O)c(O)c4)c4csc(N)n4)[C@H]3SC2)cn1 [Compound I-1b]	µg/mL	0.25
CC(C)(O/N=C(\C(=O)N[C@@H]1C(=O)N2C(C(=O)[O-])=C(C[n+]3ccccc3)CS[C@H]12)c1csc(N)n1)C(=O)O [CAZ, Ceftazidime, reference compound]	µg/mL	0.25
Cc1c(N)nc[n+](C/C=C/C2=C(C(=O)[O-])N3C(=O)[C@@H](NC(=O)/C(=N\O[C@H](C(=O)O)c4ccc(O)c(O)c4)c4csc(N)n4)[C@H]3SC2)c1N [Compound I-4a]	µg/mL	0.063
